target.under.test: ETS1 (UniProt P14921)
Sequence: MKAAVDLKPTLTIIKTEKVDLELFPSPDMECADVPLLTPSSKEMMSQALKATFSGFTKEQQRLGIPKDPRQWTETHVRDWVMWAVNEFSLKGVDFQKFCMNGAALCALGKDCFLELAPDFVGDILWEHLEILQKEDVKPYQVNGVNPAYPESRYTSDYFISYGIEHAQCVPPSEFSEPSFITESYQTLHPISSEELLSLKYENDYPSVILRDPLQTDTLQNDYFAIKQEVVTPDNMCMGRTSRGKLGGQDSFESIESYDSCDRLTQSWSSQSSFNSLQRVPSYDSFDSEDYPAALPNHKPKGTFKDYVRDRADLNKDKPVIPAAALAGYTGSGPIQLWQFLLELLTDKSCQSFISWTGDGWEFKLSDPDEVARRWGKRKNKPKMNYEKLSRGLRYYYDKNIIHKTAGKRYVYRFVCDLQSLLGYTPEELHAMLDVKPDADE
run.description: ETS1 binding intensity (PBM fluorescence), ETS1 alone (arbitrary fluorescence units); higher = stronger binding
details: ETS1 concentration 1 nM; RUNX1 concentration 0 nM
Record form. Attribute: ETS1 binding intensity. Fill in for each entry.
Could you respond with only the numeric value?

What value of measured ETS1 binding intensity is listed for CAGGCTGCTTCCGGCGCGCGGCAGAGCGGTCAGAGC ? 990

Here is the next sequence: TGCCTTCTACTCCGGAACTCAGACCGCTGCCTTCTA 759

Input TGTTGGCTGTCCTCCGGAAACCCGCGCCTGGGTCGC 1820

How about GGGGAAGAGGGGAGGATGTCTGAGGTTTTAATTGTA ? 523

Can you handle GCAGCTCTGGCAGGATGCGGTTAAATATGTATCCAC next? 2010

Item: TAAGCAGGGAATAGAGGAAGTGGTTTTGTCTCAGGC 3270

Also need TTTGCACACATCCTGGCCTCCGCCTGACCACCTCCT , thanks. 483

Lookup GGGACGGGGAGGGCAGGATGTGGTCGCTCTTCCCTC 3320

Now try TGGTGCCAAACATCCGCTAGCCACAGAAAAACCGAC . 778

Repeat with GCACTTCCGGAGCCGGGCGTCTACAGACCGCGGCCA 868

Then this sequence: GAGGAGATTTCCGGCCCCCATCCCCGCAGCGACCTT 1690

Repeat for the following sequence: AAGAGGAAGTCCCAAATTGCTTTTTAACCACCAACA 522

Now the same for GCTATCCCCGCCCCTTCCTGTGGGCTGGCGCCCGAT 482

Try GTAAAAGAGGAAGTAACACCTCCTTGCGGTTGAGAC next. 1450

One more sequence: ACAGCGCCTCTTCCTGCTCTACCACATCTGATGTCC 512

Thanks! And AATCCAACACTTCCTCCTCCACCGCAGAAAGGCAAC ? 518

# repeat for TGTTTGTTTCCGAAGATTAGCCAGCCTGCGGTAGAG 437

Now the sequence CCGGGAGGGACGGAGGATGTGTGGTTCTGTCTCCTT 673

Next sequence: GAAACCCCATGGGCAGGATGTGGGTGAGCTGTCTGG 3380

Please answer likewise for TGCTGTTTCCTCTGCTGCCGAAGCGGTTTCTTCCAC 443

Param item: TTCTGCTACATCCTGCCCACTCCCTGTGGCTTCCAC 1090

Param item: AGGAGAACTTCCGCCCTTACTATATTACCGCCGGTA 1180

Query AGTGTCCGCCGCTTCCTGGTTGCGGGTCAGCGCCCA next 629

Quick one: CAGCCTTGCCGGAAGGCAGAGTTTGTGGTCAGACCG 1090

Next: GAATGACAGAAGCGGAAACCACATGAAAAAGGTGTT 2010

Another sequence to check: ACGCTGGAATCGCGGAAACCGCCGGTGCACGTTGGA 531

Same thing, different sequence: CTTTGCAGGAAGCTGGGGTTCACCCACAGCCTTGTT 749

// query: GGTTTCCGGGTGAAAAAAAAAAAAAAAACCACGCCA 461

Thanks! And GAAAGCTGCACTATTTCCTGAGGTTAGAGGTTTAAA ? 522

Similarly, GACTCCCTCAGCGGATGCGGGTGCTGCTGCTGCTGC ? 1290

// same read-out, input: CCACGTCCACAAAGGAAACCGCGGCCTGCCCGGGGA 512

Proceed to GCGTTTCCCCCTTGGGGTTATAGCAACCACCTCCTC 479

Further, for ATGCCAAGGGACTTCCCTCCACAACCGCCCCCAGCT ? 642

Item: TGCAGCCTATTTCCTCTAACCCGCAGATCCACTATG 536

Repeat for the following sequence: TAGACTAACAGGGGAGGAAGTGGGTTGCAAGCCGTG 2030

And the next one, CTGGAAACCATTTCCTTTGTGGCCATGAAACAATGG ? 594

Another sequence to look at: TGCACACATGAGGAAGGGGTAAGTGGTTTTCCCTAC 498

Do the same for CGAAGCCGGAAATGCTGAGTGTGCGGGGCCGAACGT please 4230

Now this one: GAGCACAGGAAAAGCTGGTGCCAACCACAAGTGCTT 368

Now the sequence GTCCCACGCGACTTCCTGCGGGAAACATGGCGGCAT 1520

What do we get for GCTTTGCAGTTTCCTCTATGGAACACCACACACAGT ? 621

Queued: AGGTCTCCGGAAGTGGGTCTGCGGCGCGCGGGATGC 6040

ACCATATCCTGAGAATGAACCATGTGGTGGATGCAC ? 519

Check AGTTGTGTTTTAGGATGTGGTCAAAGCCCAACAGAG too. 581

Now the sequence ACCAGCAACGGAAATCAGATCTCTTGTGGTTATTAT 1480

Query TACGTCACTTCCGGGCCGCCGTCCTGCGGGCAAGGG next 2570

Also need AACAGCTTTTGTCCAGGATGTGGCTTCATAGCCTTG , thanks. 1650

Try this sequence too: AAGAACCTAGAGGATGTGTGGTTTTATGTGCAGGGT 710

Param item: CTTAGAGTACCAGGATGTGGTTTGGCCTGGGGGTGG 1790

Request: GCAACGGAGTCCGGAAGAACCACAGAGACGCGGCTC 789
